Hello, the source for this data is paper PMC9458429, in case you need it.

System: 70S ribosome (Escherichia coli MRE600)
assayComment: filter binding
testSettings: Filter binding: 50 nM 32P-RNA in TAKM5 buffer (composition not given), 15 min at 37 C, nitrocellulose filtration; fluorescence titrations: pyrene, ex 341 nm …
pKd: −log10 of the molar value.
Catalogue of pKd values
measuredEndpoint: pKd

1) AAAGCAAAAAUGUGAUCUUGCUUGUAAAUACAAUUUUGAGAGGUUAAUAAAUUACAAGUAGUGCUAUUUUUGUAUUUAGGUUAGCUAUUUAGCUUUACGUUCCAGGAUGCCUAGUGGCAGCCCCACAAUAUCCAGGAAGCCCUCUCUGCGGUUUUUCAGAUUAGGUAGUCGAAAAACCUAAGAAAUUUACCUGCUACAUUUCAAGAUAAA [CrPV IGR IRES WT] :: 7.16
2) AAAGCAAAAAUGUGAUCUUGCUUGUAAAUACAAUUUUGAGAGGUUAAUAAAUUACAAGUAGUGCUAUUUUUGUAUUUAGGUUAGCUAUUUAGCUUUACGUUCCAGGAUGCCUAGUGGCAGCCCCACAAUAUCCAGGAAGCGGAGAGUGCGGUUUUUCAGAUUAGGUAGUCGAAAAACCUAAGAAAUUUACCUGCUACAUUUCAAGAUAAA [CrPV IGR IRES PK2_K/O] :: 7.00
3) AAAGCAAAAAUGUGAUCUUGCUUGUAAAUACAAUUUUGAGAGGUUAAUAAAUUACAAGUAGUGCUAUUUUUGUAUUUAGGUUAGCUAUUUAGCUUUACGUUCCAGGAUGCCUAGUGGCAGCCCCACAAUAUCCAGGAAGCCCUCUCUGCGGUUUUUCAGAUUAGGUAGUCGAAAAACCUAAGAAAUUUAGGUGCUACAUUUCAAGAUAAA [CrPV IGR IRES PK1_K/O] :: 7.04
4) AAAGCAAAAAUGUGAUCUUGCUUGUAAAUACAAUUUUGAGAGGUUAAUAAAUUACAAGUAGUGCUAUUUUUGUAUUUAGGUUAGCUAUUUAGCUUUACGUUCCAGGAUGCCUAGUGGCAGCCGGUGAAUAUCCAGGAAGCCCUCUCUGCGGUUUUUCAGAUUAGGUAGUCGAAAAACCUAAGAAAUUUAGGUGCUACAUUUCAAGAUAAA [CrPV IGR IRES PK1+3_K/O] :: 7.11
5) AAAGCAAAAAUGUGAUCUUGCUUGUAAAUACAAUUUUGAGAGGUUAAUAAAUUACAAGUAGUGCUAUUUUUGUAUUUAGGUUAGCUAUUUAGCUUUACGUUCCAGGAUGCCUAGUGGCAGCCGGUGAAUAUCCAGGAAGCGGAGAGUGCGGUUUUUCAGAUUAGGUAGUCGAAAAACCUAAGAAAUUUAGGUGCUACAUUUCAAGAUAAA [CrPV IGR IRES PK1+2+3_K/O] :: 7.10
6) GAGCGGUUUCUGGAAUACUAUAUGUAAGUAUAGUGUUCUGGAGGCAUCAUUCUAUGGUUACCCAUCAUUAGAGGAAAUUUCCAAUAAACUCUGGUGUAAGGCUUAGAGUGAUGGUCGAGGUGCCCUAUUUAGGGUGAGGAGCCUCGGUGGCAGCCCCUGGAAAUCCUCUUAACCAUAGGAACAGCUGUACUGGGCAGUUACAGCAGUCGUAUGGUAACACAUGCGGCGUUCCGAAAUACCAUGGGUGGCGAUUCACAACAAGAA [IAPV IGR IRES PK1+2+3_K/O] :: 7.14
